Tested on: HL-60
Assay: In vitro inhibitory concentration required against human leukemic HL-60 cell line was determined after 48 hrs of drug exposure using MTT method
Format: functional, cell-based
Conditions: HL-60, 48 h
pIC50: −log10 of the molar value.

compound | pIC50
COc1cc([C@@H]2c3cc4c(cc3[C@@H](NC(CSC)C(=O)OCCCCn3cc(F)c(=O)[nH]c3=O)[C@H]3COC(=O)[C@H]23)OCO4)cc(OC)c1O (stereo partly specified) | 7.30
O=c1[nH]cc(F)c(=O)[nH]1 | 4.19
COc1cc([C@@H]2c3cc4c(cc3[C@@H](NC(Cc3ccccc3)C(=O)OCCCn3cc(F)c(=O)[nH]c3=O)[C@H]3COC(=O)[C@H]23)OCO4)cc(OC)c1O (stereo partly specified) | 6.51
COc1cc([C@@H]2c3cc4c(cc3[C@@H](NC(C(=O)OCCCCCn3cc(F)c(=O)[nH]c3=O)C(C)Cc3ccccc3)[C@H]3COC(=O)[C@H]23)OCO4)cc(OC)c1O (stereo partly specified) | 6.52
COc1cc([C@@H]2c3cc4c(cc3[C@@H](NC(Cc3ccccc3)C(=O)OCCCCn3cc(F)c(=O)[nH]c3=O)[C@H]3COC(=O)[C@H]23)OCO4)cc(OC)c1O (stereo partly specified) | 6.38
COc1cc([C@@H]2c3cc4c(cc3[C@@H](NC(Cc3ccccc3)C(=O)OCCCCCn3cc(F)c(=O)[nH]c3=O)[C@H]3COC(=O)[C@H]23)OCO4)cc(OC)c1O (stereo partly specified) | 7.40
